Experiment: Apparent permeability across human Caco-2 cells from apical to basolateral side in human Caco2 cell membrane
Format: ADME, cell-based
measured.endpoint: Papp A→B (×10⁻⁶ cm/s)
A number alone suffices; assume ×10⁻⁶ cm/s.

Input CS(=O)(=O)Nc1ccc2c(c1)S(=O)(=O)N=C(C1=C(O)[C@H]3CCCC[C@H]3N(Cc3ccc(F)cc3)C1=O)N2 . Output Papp A→B: 0.67

The compound listed as CS(=O)(=O)Nc1ccc2c(c1)S(=O)(=O)N=C(C1=C(O)[C@@H]3CCCC[C@@H]3N(Cc3ccc(F)cc3)C1=O)N2 shows Papp A→B equal to 1

// recorded Papp A→B for CS(=O)(=O)Nc1ccc2c(c1)S(=O)(=O)NC(C1=C(O)[C@@H]3CCC[C@@H]3N(Cc3ccc(F)cc3)C1=O)=N2 : 0.88
